Consider the following compounds and their measured LC50 readings.
# System: Daphnia magna
# conditionParameters: incubation period 48 h
The response must be a number in µM with no trailing unit.

1) [Cl-].[Cl-].[Zn+2] : 0.89
2) COc1cccc(C=NNC(=O)c2ccncc2)c1[O-].COc1cccc(C=NNC(=O)c2ccncc2)c1[O-].[Co+2] [complex 5, [Co(L)2]] : 2.38

Ask: Which value of LC50 has been reported for CC(=O)[O-].COc1cccc(C=NNC(=O)c2ccncc2)c1[O-].[Cu+2] [complex 2, [Cu(L)(CH3COO)]] in the records?
Result: 13.1

###

# testDetails: Solubility in compendial aqueous media
# Format: physicochemical
# conditionParameters: aqueous buffer, kinetic from dmso stock, Phosphate Buffer (pH = 6.8), 37 °C, mean ± standard deviation, n = 3
measure: solubility at 30 min (µg/mL)
Return type: number; implicit unit µg/mL.

Ask: # solubility at 30 min lookup, item COc1cccc(/C=N/NC(=O)c2ccncc2)c1O
Result: 0.25

All figures here come from paper PMC6154339.
